// reported half-life per item
Assay: Ex vivo prodrug stability in normal mouse liver homogenate (LC/MS/MS)
Format: in vitro ADME
Conditions: mouse, tissue homogenate; murine liver homogenate; mean of four independent experiments; read-out: Liver t½
Excerpt: Liver was representative of all normal tissues analysed. (FIG. 5) • d. Half lives are the mean taken from four independent experiments. Liver represent murine liver homogenate and tumour represents HT1080
Non-standard residues stand in square brackets, D forms with d. Residues, ends and D or L forms follow the SMILES beside them. *: point of attachment. NH(Colchicin-10-yl) = COc1cc2c(c(OC)c1OC)-c1ccc(N*)c(=O)cc1[C@@H](NC(C)=O)CC2; FITC = O=C1OC2(c3ccc(O)cc3Oc3cc(O)ccc32)c2ccc(NC(=S)*)cc21; hPhe = N[C@@H](CCc1ccccc1)C(=O)O; Cit = NC(=O)NCCC[C@H](N)C(=O)O; βAla = NCCC(=O)O
experimental_endpoint: half-life (h)

>>> numeric_value("COc1cc2c(c(OC)c1OC)-c1ccc(NC(=O)[C@H](Cc3ccc(O)cc3)NC(=O)[C@H](CC(C)C)NC(=O)[C@H](C)NC(=O)[C@H](CCc3ccccc3)NC(=O)CNC(=O)[C@H](CCCNC(N)=O)NC(=O)[C@H](CO)NC(=O)[C@H](CCCNC(=N)N)NC(=O)CCNC(=S)Nc3ccc4c(c3)C(=O)OC43c4ccc(O)cc4Oc4cc(O)ccc43)c(=O)cc1[C@@H](NC(C)=O)CC2 [ICT3053] ({FITC-βAla}-RS[Cit]G[hPhe]ALY-{NH(Colchicin-10-yl)})")
1.27
>>> numeric_value("COc1cc2c(c(OC)c1OC)-c1ccc(NC(=O)[C@H](Cc3ccc(O)cc3)NC(=O)[C@H](CC(C)C)NC(=O)[C@H](CO)NC(=O)[C@H](CCc3ccccc3)NC(=O)CNC(=O)[C@H](CCCNC(N)=O)NC(=O)[C@H](CO)NC(=O)[C@H](CCCNC(=N)N)NC(=O)CCNC(=S)Nc3ccc4c(c3)C(=O)OC43c4ccc(O)cc4Oc4cc(O)ccc43)c(=O)cc1[C@@H](NC(C)=O)CC2 [ICT3054] ({FITC-βAla}-RS[Cit]G[hPhe]SLY-{NH(Colchicin-10-yl)})")
1.1
>>> numeric_value("COc1cc2c(c(OC)c1OC)-c1ccc(NC(=O)[C@H](Cc3ccc(O)cc3)NC(=O)[C@H](CC(C)C)NC(=O)[C@H](CC(N)=O)NC(=O)[C@H](CCc3ccccc3)NC(=O)CNC(=O)[C@H](CCCNC(N)=O)NC(=O)[C@H](CO)NC(=O)[C@H](CCCNC(=N)N)NC(=O)CCNC(=S)Nc3ccc4c(c3)C(=O)OC43c4ccc(O)cc4Oc4cc(O)ccc43)c(=O)cc1[C@@H](NC(C)=O)CC2 [ICT3078] ({FITC-βAla}-RS[Cit]G[hPhe]NLY-{NH(Colchicin-10-yl)})")
1.27

====

Assay: Ex vivo prodrug stability in normal mouse liver homogenate (LC/MS/MS)
Assay type: in vitro ADME
Settings: mouse, tissue homogenate; murine liver homogenate; mean of four independent experiments; read-out: Liver t½
Source text: Liver was representative of all normal tissues analysed. (FIG. 5) • d. Half lives are the mean taken from four independent experiments. Liver represent murine liver homogenate and tumour represents HT1080
Non-standard residues stand in square brackets, D forms with d. Residues, ends and D or L forms follow the SMILES beside them. *: point of attachment. NH(Colchicin-10-yl) = COc1cc2c(c(OC)c1OC)-c1ccc(N*)c(=O)cc1[C@@H](NC(C)=O)CC2; FITC = O=C1OC2(c3ccc(O)cc3Oc3cc(O)ccc32)c2ccc(NC(=S)*)cc21; hPhe = N[C@@H](CCc1ccccc1)C(=O)O; Cit = NC(=O)NCCC[C@H](N)C(=O)O; βAla = NCCC(=O)O
experimental_endpoint: half-life

>>> result("COc1cc2c(c(OC)c1OC)-c1ccc(NC(=O)[C@H](Cc3ccc(O)cc3)NC(=O)[C@H](CC(C)C)NC(=O)[C@H](Cc3ccc(O)cc3)NC(=O)[C@H](CCc3ccccc3)NC(=O)CNC(=O)[C@H](CCCNC(N)=O)NC(=O)[C@H](CO)NC(=O)[C@H](CCCNC(=N)N)NC(=O)CCNC(=S)Nc3ccc4c(c3)C(=O)OC43c4ccc(O)cc4Oc4cc(O)ccc43)c(=O)cc1[C@@H](NC(C)=O)CC2 [ICT-2588] ({FITC-βAla}-RS[Cit]G[hPhe]YLY-{NH(Colchicin-10-yl)})")
"2.48 h"
>>> result("COc1cc2c(c(OC)c1OC)-c1ccc(NC(=O)[C@H](Cc3ccc(O)cc3)NC(=O)[C@H](CC(C)C)NC(=O)[C@@H]3CCCN3C(=O)[C@H](CCc3ccccc3)NC(=O)CNC(=O)[C@H](CCCNC(N)=O)NC(=O)[C@H](CO)NC(=O)[C@H](CCCNC(=N)N)NC(=O)CCNC(=S)Nc3ccc4c(c3)C(=O)OC43c4ccc(O)cc4Oc4cc(O)ccc43)c(=O)cc1[C@@H](NC(C)=O)CC2 [ICT3097] ({FITC-βAla}-RS[Cit]G[hPhe]PLY-{NH(Colchicin-10-yl)})")
"1.83 h"
